Measured values drawn from patent US20070213394A1 for this set.

Target: human kappa opioid receptor (Homo sapiens, UniProt P41145)
Construct: expressed in transfected cells; host or cells: Chinese hamster ovary cells (CHO-hKOR), membranes
Sequence (P41145 whole entry): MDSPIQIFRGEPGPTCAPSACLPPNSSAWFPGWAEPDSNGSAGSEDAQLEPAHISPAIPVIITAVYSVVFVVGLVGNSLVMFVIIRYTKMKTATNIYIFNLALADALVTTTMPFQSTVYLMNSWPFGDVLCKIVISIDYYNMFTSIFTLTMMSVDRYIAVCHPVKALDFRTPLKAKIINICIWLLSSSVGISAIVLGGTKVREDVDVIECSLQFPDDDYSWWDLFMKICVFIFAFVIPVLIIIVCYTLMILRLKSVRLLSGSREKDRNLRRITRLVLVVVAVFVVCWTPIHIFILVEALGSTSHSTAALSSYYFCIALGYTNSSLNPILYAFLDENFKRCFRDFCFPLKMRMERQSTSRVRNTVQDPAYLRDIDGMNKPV
Test: biochemical
This section presents molecules with their documented pEC50 values.
Schema: pEC50 number; meaning minus log10 of the concentration expressed in molar units.

Solved cases below.
CCNC1CC(C(=O)OC)C2(C)CCC3C(=O)OC(c4ccoc4)CC3(C)C2C1=O (stereo not drawn) [Compound 209a, 2-(N-ethyl)-salvinorin]; 7.14
C=CCO[C@H]1C[C@@H](C(=O)OC)[C@]2(C)CC[C@H]3C(=O)O[C@H](c4ccoc4)C[C@]3(C)C2C1=O (stereo partly drawn) [Compound 14, 2-allyloxy-salvinorin B]; 6.84
COC(=O)C1CC(N(C)C(C)=O)C(=O)C2C1(C)CCC1C(=O)OC(c3ccoc3)CC12C (stereo not drawn) [Compound 214a, 2-(N-methylacetamide)-salvinorin]; 8.62
CC(=O)OC1CC(C(=O)N2CCCC2C(=O)OCc2ccccc2)C2(C)CCC3C(=O)OC(c4ccoc4)CC3(C)C2C1=O (stereo not drawn) [Compound 103]; 6.46
CCCO[C@H]1C[C@@H](C(=O)OC)[C@]2(C)CC[C@H]3C(=O)O[C@H](c4ccoc4)C[C@]3(C)C2C1=O (stereo partly drawn) [Compound 16, 2-propoxy-salvinorin B]; 7.17

Task: Write down the reported pEC50 of CCC(=O)O[C@H]1C[C@@H](C(=O)OC)[C@]2(C)CC[C@H]3C(=O)O[C@H](c4ccoc4)C[C@]3(C)C2C1=O (stereo partly drawn) [Compound 2, 2-propionyl-salvinorin B] , test system: human kappa opioid receptor (Homo sapiens, UniProt P41145).
Result: 7.69

Task: Same question, COC(=O)[C@@H]1C[C@H](OC(N)=O)C(=O)C2[C@@]1(C)CC[C@H]1C(=O)O[C@H](c3ccoc3)C[C@]21C (stereo partly drawn) [Compound 9, 2-(O-formamide)-salvinorin B] this time
Result: 8.21

Task: Try CCC(=O)N(C)[C@@H]1C[C@@H](C(=O)OC)[C@]2(C)CC[C@H]3C(=O)O[C@H](c4ccoc4)C[C@]3(C)C2C1=O (stereo partly drawn) [Compound 81, 2-epi-(N-methylpropionamide)-salvinorin] next.
Result: 7.90

Task: Do the same for COC(=O)[C@@H]1C[C@H](OC(=O)Nc2ccccc2)C(=O)C2[C@@]1(C)CC[C@H]1C(=O)O[C@H](c3ccoc3)C[C@]21C (stereo partly drawn) [Compound 86] please
Result: 6.71

---

Target: human kappa opioid receptor (Homo sapiens)
Construct: expressed in transfected cells; host or cells: Chinese hamster ovary cells (CHO-hKOR), membranes
Assay: biochemical
Details: 1 h, read-out: Efficacy
quantity_kind: Emax (%)
Only the number, expressed in %, is required.

Consider the reported Emax for these compounds:
COC(=O)C1CC(N(C)C(C)=O)C(=O)C2C1(C)CCC1C(=O)OC(c3ccoc3)CC12C (stereo not shown) [Compound 214a, 2-(N-methylacetamide)-salvinorin]; 103
CNC(=O)O[C@H]1C[C@@H](C(=O)OC)[C@]2(C)CC[C@H]3C(=O)O[C@H](c4ccoc4)C[C@]3(C)C2C1=O (stereo partly shown) [Compound 10, 2-(O—(N-methyl)formamide)-salvinorin B]; 81
COC(=O)[C@@H]1C[C@@H](N)C(=O)C2[C@@]1(C)CC[C@H]1C(=O)O[C@H](c3ccoc3)C[C@]21C (stereo partly drawn) [Compound 207b, 2-epi-aminosalvinorin]; 84

Task: If you can, please state the reported Emax value of COC(=O)C1CC(N(C)C)C(=O)C2C1(C)CCC1C(=O)OC(c3ccoc3)CC12C (stereo not shown) [Compound 211a, 2-(N,N-dimethyl)-salvinorin] .
Result: 110

Task: Now try COC(=O)[C@@H]1C[C@H](OC(C)=O)C(=O)C2[C@@]1(C)CC[C@H]1C(=O)OC(C3CCOC3)C[C@]21C (stereo partly shown) .
Result: 117

Task: Could you do the same for COC(=O)[C@@H]1C[C@@H](N(C)C(C)=O)C(=O)C2[C@@]1(C)CC[C@H]1C(=O)O[C@H](c3ccoc3)C[C@]21C (stereo partly drawn) [Compound 80, 2-epi-(N-methylacetamide)-salvinorin] , please?
Result: 106

Task: Moving on to the next compound: COC(=O)[C@@H]1C[C@H](NC(=O)NC(=O)C(Cl)(Cl)Cl)C(=O)C2[C@@]1(C)CC[C@H]1C(=O)O[C@H](c3ccoc3)C[C@]21C (stereo partly shown)
Result: 103

Task: Moving on to CCC(=O)N[C@H]1C[C@@H](C(=O)OC)[C@]2(C)CC[C@H]3C(=O)O[C@H](c4ccoc4)C[C@]3(C)[C@H]2C1=O [Compound 213a, 2-(propionamide)-salvinorin]
Result: 109

Task: And COC(=O)[C@@H]1C[C@H](OC(=O)[C@H](C)N(C)C)C(=O)C2[C@@]1(C)CC[C@H]1C(=O)O[C@H](c3ccoc3)C[C@]21C (stereo partly shown) ?
Result: 90

Task: Now try COC(=O)[C@@H]1C[C@H](OC)C(=O)C2[C@@]1(C)CC[C@H]1C(=O)O[C@H](c3ccoc3)C[C@]21C (stereo partly shown) .
Result: 98

Task: Param item: CCC(=O)N[C@@H]1C[C@@H](C(=O)OC)[C@]2(C)CC[C@H]3C(=O)O[C@H](c4ccoc4)C[C@]3(C)[C@H]2C1=O [Compound 213b, 2-epi-(propionamide)-salvinorin]
Result: 102

Task: Queued: COC(=O)[C@@H]1C[C@H](O)C(=O)C2[C@@]3(C)C[C@@H](c4ccoc4)OC(=O)[C@H]3CC[C@]21C (stereo partly shown) [Compound 5, Episalvinorin B]
Result: 102

Task: For C=CCO[C@H]1C[C@@H](C(=O)OC)[C@]2(C)CC[C@H]3C(=O)O[C@H](c4ccoc4)C[C@]3(C)C2C1=O (stereo partly shown) then?
Result: 106

---

Biological target: human kappa opioid receptor (Homo sapiens)
Construct: expressed in transfected cells; host or cells: Chinese hamster ovary cells (CHO-hKOR), membranes
Assay: biochemical
Details: read-out: EC50
quantity_kind: pEC50
As a rule, pEC50 stands for the negative log10 of the concentration, concentration in M.

Task: Query pEC50 on human kappa opioid receptor (Homo sapiens) for COC(=O)C1CC(NC(C)=O)C(=O)C2C1(C)CCC1C(=O)OC(c3ccoc3)CC12C (stereo not drawn) [Compound 212b, 2-epi-(acetamide)-salvinorin]
Result: 6.47

---

Biological target: human kappa opioid receptor (Homo sapiens, UniProt P41145)
Construct: expressed in transfected cells; host or cells: Chinese hamster ovary cells (CHO-hKOR), membranes
Assay: biochemical
Type: binding
quantity_kind: Ki

Completed entries (count: 2):
CCCCCCCCOC(=O)C1CC(OC(C)=O)C(=O)C2C1(C)CCC1C(=O)OC(c3ccoc3)CC12C (stereo not drawn) [Compound 42]; > 10 µM
CC(=O)OC1CC(C(=O)N2CCCC2C(=O)OCc2ccccc2)C2(C)CCC3C(=O)OC(c4ccoc4)CC3(C)C2C1=O (stereo not drawn) [Compound 104]; > 10 µM

# context switch: different molecule, same Ki
Task: Which Ki reading was recorded for the molecule C=CCOC(=O)C1CC(OC(C)=O)C(=O)C2C1(C)CCC1C(=O)OC(c3ccoc3)CC12C (stereo not drawn) [Compound 56] ?
Result: > 10 µM

---

Target: human kappa opioid receptor (Homo sapiens)
Construct: expressed in transfected cells; host or cells: Chinese hamster ovary cells (CHO-hKOR), membranes
Experiment: biochemical
Type: binding
pKi: −log10 of the molar value.
Below, each of the molecules is paired with its reported pKi value.

Here are 4 molecules together with their reported answers.
C#CCCOC(=O)C1CC(OC(C)=O)C(=O)C2C1(C)CCC1C(=O)OC(c3ccoc3)CC12C (stereo not shown) [Compound 53]; < 5.00
COC(=O)[C@@H]1C[C@H](OC(=O)CNC(C)=O)C(=O)C2[C@@]1(C)CC[C@H]1C(=O)O[C@H](c3ccoc3)C[C@]21C (stereo partly shown) [Compound 26]; < 5.00
CC(=O)OC1CC(C(=O)NC(Cc2cnc[nH]2)C(=O)OCc2ccccc2)C2(C)CCC3C(=O)OC(c4ccoc4)CC3(C)C2C1=O (stereo not shown) [Compound 105]; < 5.00
CN[C@@H]1C[C@@H](C(=O)OC)[C@]2(C)CC[C@H]3C(=O)O[C@H](c4ccoc4)C[C@]3(C)C2C1=O (stereo partly shown) [Compound 11, 2-(N-methylamino)-salvinorin]; < 5.00

Task: // lookup pKi for CC(=O)OC1CC(C(=O)OCc2ccccc2)C2(C)CCC3C(=O)OC(c4ccoc4)CC3(C)C2C1=O (stereo not shown) [Compound 37]
Result: < 5.00

Task: What do we get for CCOC(=O)O[C@H]1C[C@@H](C(=O)OC)[C@]2(C)CC[C@H]3C(=O)O[C@H](c4ccoc4)C[C@]3(C)C2C1=O (stereo partly shown) [Compound 30] ?
Result: < 7.10

Task: Try COC(=O)C1CC(NC(C)=O)C(=O)C2C1(C)CCC1C(=O)OC(c3ccoc3)CC12C (stereo not shown) [Compound 212a, 2-(acetamide)-salvinorin] next.
Result: 6.83

Task: Now consider COC(=O)[C@@H]1C[C@H](NC(=O)NC(=O)C(Cl)(Cl)Cl)C(=O)C2[C@@]1(C)CC[C@H]1C(=O)O[C@H](c3ccoc3)C[C@]21C (stereo partly shown) [Compound 79] and answer again.
Result: 6.64

Task: Try COC(=O)[C@@H]1C[C@H](OC(=O)CN(C)C)C(=O)C2[C@@]1(C)CC[C@H]1C(=O)O[C@H](c3ccoc3)C[C@]21C (stereo partly shown) [Compound 12] next.
Result: < 5.00

Task: Param item: CCCCOC(=O)C1CC(OC(C)=O)C(=O)C2C1(C)CCC1C(=O)OC(c3ccoc3)CC12C (stereo not shown) [Compound 35]
Result: < 5.00

Task: Try this molecule next: CCC(=O)N(C)[C@@H]1C[C@@H](C(=O)OC)[C@]2(C)CC[C@H]3C(=O)O[C@H](c4ccoc4)C[C@]3(C)C2C1=O (stereo partly drawn) [Compound 81, 2-epi-(N-methylpropionamide)-salvinorin]
Result: 8.16

Task: Now consider CC(=O)OC1CC(C(=O)N2CCCC2C(=O)OCc2ccccc2)C2(C)CCC3C(=O)OC(c4ccoc4)CC3(C)C2C1=O (stereo not shown) [Compound 103] and answer again.
Result: 6.68

Task: Please answer likewise for CCCCO[C@H]1C[C@@H](C(=O)OC)[C@]2(C)CC[C@H]3C(=O)O[C@H](c4ccoc4)C[C@]3(C)C2C1=O (stereo partly shown) [Compound 13, 2-n-butoxy-salvinorin B]
Result: 7.45

Task: Now this one: COC(=O)C1CC(OC)C(=O)C2C1(C)CCC1C(=O)OC(c3ccoc3)CC12C (stereo not drawn) [Compound 205b, 2-epi-(O-methyl)-salvinorin B]
Result: < 5.00

Task: Then what about the molecule COC(=O)C1CC(NC(C)C)C(=O)C2C1(C)CCC1C(=O)OC(c3ccoc3)CC12C (stereo not shown) [Compound 210a, 2-(N-isopropyl)-salvinorin] ?
Result: 7.75

Task: Here is the next molecule: COC(=O)O[C@H]1C[C@@H](C(=O)OC)[C@]2(C)CC[C@H]3C(=O)O[C@H](c4ccoc4)C[C@]3(C)C2C1=O (stereo partly shown) [Compound 29]
Result: < 7.04
